B1: glmS ribozyme (parent)
chain: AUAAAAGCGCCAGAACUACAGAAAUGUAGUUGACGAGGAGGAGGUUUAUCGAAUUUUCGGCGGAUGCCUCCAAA

variants of: B1; assay: self-cleavage kobs at 640 uM GlcN6P; higher = faster cleavage; RNA array; conditions: with glucosamine-6-phosphate
This sample holds only a part of the variants without activity.
OBSERVABLE: self-cleavage kobs at 640 uM GlcN6P

>>> print(df.to_string())
                    variant_code    meas_value
 0           A39C G51C U56C C70A   < 1e-05 s⁻¹
 1                     A42G U46A   0.00178 s⁻¹
 2       C8G A14C G29C C34A C67U   < 1e-05 s⁻¹
 3  C8U A15G C34U G35U A36U C68A   < 1e-05 s⁻¹
 4      C10U G13U A42U U46G U57A   < 1e-05 s⁻¹
 5                      G9C C61G  0.000828 s⁻¹
 6                A12U G38C A39C   < 1e-05 s⁻¹
 7           A33G G51A U55C C68A   < 1e-05 s⁻¹
 8                     U54C G62C   < 1e-05 s⁻¹
 9                A33U G44U A48C   < 1e-05 s⁻¹
10                      G9C A53C   < 1e-05 s⁻¹
11                     U56C A64U   < 1e-05 s⁻¹
12                U30A U31C G32A   6.3e-05 s⁻¹
13  A6G G37U U47G C50G C58G C67A     7e-05 s⁻¹
14            G7A U54C U65G C67U   < 1e-05 s⁻¹
15                A42C C61G C70A   < 1e-05 s⁻¹
16                C34G U56G C70U  3.21e-05 s⁻¹
17                      G7U G62A   < 1e-05 s⁻¹
18                     U54A C70U   0.00479 s⁻¹
19                     A15U A64G   0.00182 s⁻¹
20           A15C A39G U56G C61G   < 1e-05 s⁻¹
21                          C50U  2.57e-05 s⁻¹
